Data origin: patent US20220395553A1

target: CXCR4 on cultured U937 and Jurkat cells (human, UniProt P61073 1-352); test: cell-based or functional assay
Sequence (P61073 whole entry): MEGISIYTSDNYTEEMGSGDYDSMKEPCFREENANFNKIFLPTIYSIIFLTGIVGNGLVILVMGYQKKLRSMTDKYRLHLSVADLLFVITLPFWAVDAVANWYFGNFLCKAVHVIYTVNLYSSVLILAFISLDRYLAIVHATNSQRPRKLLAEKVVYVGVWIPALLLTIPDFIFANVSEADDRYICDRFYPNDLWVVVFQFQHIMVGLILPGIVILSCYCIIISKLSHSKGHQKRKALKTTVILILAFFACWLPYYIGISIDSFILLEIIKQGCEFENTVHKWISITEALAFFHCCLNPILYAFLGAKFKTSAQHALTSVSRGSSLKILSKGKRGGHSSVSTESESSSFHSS
Square brackets hold non-standard residues; d marks the D form. Ends that are not written are not given here.
Recorded Percent Inhibition of CXCR4/CXCL12 Induced p-MEK (100 nM Test Article), one value per entry.
Give just the numeric value; % need not be written.

>  <binder>
LERYHHT[dA]RSSLRPYTK [SEQ ID NO: 40]

>  <value>
33

$$$$
>  <binder>
LERYHHSVRSSLRPYTK [SEQ ID NO: 4]

>  <value>
40

$$$$
>  <binder>
LERYHHTVRSSLRPYTK [SEQ ID NO: 39]

>  <value>
38

$$$$

Q) GET /values?readout=Percent Inhibition of CXCR4/CXCL12 Induced p-MEK (100 nM Test Article)&item= LERYHHS[dA]RSTLRPYTK [SEQ ID NO: 77]
A) 7
